All figures here come from PubChem BioAssay (NCATS).

MEASUREMENT_NOTES: Cellular viability qHTS for adrenocortical cancer (ACC) cell line NCI-H295R (AID 1963990); note: nearly all actives have a fitted effect of over 60% in size
ASSAY_CONDITIONS: CellTiter-Glo ATP luminescence, 48 h; series mostly up to 46.1 µM
Results filed as inconclusive are left out. Calls of active or inactive are those of the source. Calls come from the whole dose curve; as a rule, active = well fitted cell-killing curve with a large enough effect; inconclusive = small, poorly fitted or top-dose-only effect; inactive = flat fitted curve, though single readings scatter.
Reply using exactly one outcome from true = active, false = inactive

{"MOLECULE": "CCCCC(O)/C=C(C)/C=C/C=C/C(=O)N1CCCC1=O (configuration not stated)", "CLASS": "false"}
{"MOLECULE": "CNC(=O)[C@H](Cc1ccccc1)NC(=O)[C@H](CC(C)C)[C@H](CSc1cccs1)C(=O)NO", "CLASS": "false"}
{"MOLECULE": "C=CC(=O)N1CC[C@@H](Oc2nc(Nc3ccc(N4CCC(N5CCN(C)CC5)CC4)cc3)c(C(N)=O)nc2CC)C1", "CLASS": "true"}
{"MOLECULE": "CC(=O)SCC(Cc1ccccc1)C(=O)NCC(=O)OCc1ccccc1 (configuration not stated)", "CLASS": "false"}
{"MOLECULE": "CCOC(=O)C(C#N)=C(c1ccccc1)c1ccccc1", "CLASS": "false"}

Fill in: this test's call for C[C@]12CCC3c4ccc(O)cc4CCC3C1CCC2=O (some centres not stated) is ___
false

Fill in: this test's call for C[C@H](O)C(=O)Nc1c(I)c(C(=O)NC(CO)CO)c(I)c(C(=O)NC(CO)CO)c1I is ___
false

Fill in: this test's call for O=C1CC(c2ccc(Cl)cc2)CC(=O)N1 is ___
false

Fill in: this test's call for CO[C@@]1(NC(=O)CSC[C@@H](N)C(=O)O)C(=O)N2C(C(=O)O)=C(CSc3nnnn3C)CS[C@@H]21 is ___
false

Fill in: this test's call for CC(C)(C)c1cnc(CSc2cnc(NC(=O)C3CCNCC3)s2)o1 is ___
true

Fill in: this test's call for O=S(=O)(O)NC1CCCCC1 is ___
false

Fill in: this test's call for CCN(CC)C(=O)c1cccc(C)c1 is ___
false

Fill in: this test's call for CCNC(=O)NCc1cccc(Cl)c1 is ___
false

Fill in: this test's call for CN[C@@H](C)C(=O)N[C@H]1CN(C(=O)CC(C)C)CC[C@H]2CC[C@@H](C(=O)NC(c3ccccc3)c3ccccc3)N2C1=O is ___
false

Fill in: this test's call for CC[N+](CC)(CC)CCOc1ccc(/C=C/c2ccccc2)cc1 is ___
false

Fill in: this test's call for CN[C@@H](C)C(=O)N[C@H](C(=O)N1CCC[C@H]1c1nc(C(=O)c2ccc(F)cc2)cs1)C1CCCCC1 is ___
false

Fill in: this test's call for CC(=O)O/N=C1/C(c2c(O)[nH]c3cc(Br)ccc23)=Nc2ccccc21 is ___
true
